Values compiled from patent US5089494A.

- System: platelet aggregation
- measurement_protocol: Platelet aggregation-inhibitory activity in vitro (collagen-induced, rat platelet rich plasma)
- Assay type: cell-based
- experimental_parameters: 10^-6 M, read-out: in vitro Inhibitory ratio
experimental_endpoint: inhibition at 1 µM (%)
Dear colleague, please return just the value in %, with no unit written.

Measured inhibition at 1 µM, c1ccc(CCCNc2nnc(-c3ccccc3)c3ccccc23)cc1 [Control 3, reference compound] : 40.7

Measured inhibition at 1 µM, COc1cccc(C(C)Nc2nnc(-c3ccccc3)c3ccccc23)c1 (racemic) [72 (DL)] : 94.8

Measured inhibition at 1 µM, CCCCC(Nc1nnc(-c2ccccc2)c2ccccc12)c1ccccc1 (racemic) [5 (DL)] : 98.4

Measured inhibition at 1 µM, CC(Nc1nnc(-c2ccc(Cl)cc2)c2ccccc12)c1ccccc1 (racemic) [34 (DL)] : 100

Measured inhibition at 1 µM, Cc1cccc(C(C)(C)Nc2nnc(-c3ccccc3)c3ccccc23)c1 [compound 167] : 100

Measured inhibition at 1 µM, CC(Nc1nnc(-c2ccccc2)c2ccccc12)c1cccc(Cl)c1 (racemic) [81 (DL)] : 98.3

Measured inhibition at 1 µM, CC(Nc1nnc(-c2ccccc2)c2ccccc12)c1ccccc1F (racemic) [87 (DL)] : 52.4

Measured inhibition at 1 µM, CC(Nc1nnc(-c2ccccc2)c2ccccc12)c1ccc(C(F)(F)F)cc1 (racemic) [91 (DL)] : 22.5

Measured inhibition at 1 µM, Cc1ccc(C(C)(C)Nc2nnc(-c3ccccc3)c3ccccc23)cc1 [compound 166] : 100

---

- Tested on: platelet aggregation
- measurement_protocol: Platelet aggregation-inhibitory activity in vitro (collagen-induced, rat platelet rich plasma)
- Type: cell-based
- experimental_parameters: 10^-7 M, read-out: in vitro Inhibitory ratio
- Experimental: Platelet aggregation-inhibitory activity in vitro Rat arterial blood was centrifuged to obtain platelet rich plasma. Platelet aggregation inhibitory ratio was calculated by the following formula: [formula] Tc: Aggregation degree where only a solvent was added. Ts: Aggregation degree where a solution of the test compound was added.
experimental_endpoint: inhibition at 0.1 µM

Measured inhibition at 0.1 µM, COc1ccccc1C(C)Nc1nnc(-c2ccccc2)c2ccccc12 (racemic) : 93.3%

Measured inhibition at 0.1 µM, CCCCC(Nc1nnc(-c2ccccc2)c2ccccc12)c1ccccc1 (racemic) : 20.6%

Measured inhibition at 0.1 µM, CC(C)(Nc1nnc(-c2ccccc2)c2ccccc12)c1ccccc1 : 93%

Measured inhibition at 0.1 µM, Cc1ccc(C(C)Nc2nnc(-c3ccccc3)c3ccccc23)cc1 (racemic) : 92.9%

Measured inhibition at 0.1 µM, CC(Nc1nnc(-c2ccccc2)c2ccccc12)c1ccc2c(c1)OCO2 (racemic) : 6.3%

Measured inhibition at 0.1 µM, CCC(Nc1nnc(-c2ccccc2)c2ccccc12)c1ccccc1 (racemic) : 100%

Measured inhibition at 0.1 µM, c1ccc(-c2nnc(NC3(c4ccccc4)CCCCC3)c3ccccc23)cc1 : 94.7%

Measured inhibition at 0.1 µM, CC(Nc1nnc(-c2ccccc2)c2ccccc12)c1ccc(F)cc1 (racemic) : 10.2%

Measured inhibition at 0.1 µM, CCCC(Nc1nnc(-c2ccccc2)c2ccccc12)c1ccccc1 (racemic) : 65.9%

---

What ex vivo Inhibitory ratio (p.o.) was measured for each of the following?
- System: platelet aggregation
- measurement_protocol: Platelet aggregation inhibitory activity ex vivo (by oral administration)
- Type: in vivo, male Wistar ST rats
- experimental_parameters: 3 mg/kg p.o.; 1 hour; collagen 7 to 10 μg/ml; rat
Dear colleague, please return just the value in %, with no unit written.

Measured ex vivo Inhibitory ratio (p.o.), CC(Nc1nnc(-c2ccccc2)c2ccccc12)c1ccccc1 (racemic) [1 (DL)] : 79.8

Measured ex vivo Inhibitory ratio (p.o.), C[C@@H](Nc1nnc(-c2ccccc2)c2ccccc12)c1ccccc1 [1 (D)] : 80.2

Measured ex vivo Inhibitory ratio (p.o.), CC(C)(C)C(Nc1nnc(-c2ccccc2)c2ccccc12)c1ccccc1 (racemic) [8 (DL)] : 35.1

Measured ex vivo Inhibitory ratio (p.o.), CCC(Nc1nnc(-c2ccccc2)c2ccccc12)c1ccccc1 (racemic) [2 (DL)] : 52.3
